Sourced from patent US8501783B2

# assay.details: Pharmacokinetic screening in dogs, oral administration, plasma LC-MS/MS
# condition.parameters: dogs, single oral dose (0.3 mg/kg per FIG. 1), time 240 min
Lab note: anything with LC/MS analysis, plasma level at time 240 at or over 7 counts as yes; the rest go in no.

1) CCCC(=O)N1CCC(NC(=O)NC23CC4CC(CC(C4)C2)C3)CC1 [Compound 1157]
no
2) CC(=O)N1CCC(NC(=O)NC23CC4CC(CC(C4)C2)C3)CC1 [Compound 1153]
yes
3) CC(=O)N1CCC(NC(=O)Nc2ccc(OC(F)(F)F)cc2)CC1 [Compound 1555]
yes
4) O=C(NCC1CCN(C(=O)c2ccccc2)CC1)NC12CC3CC(CC(C3)C1)C2 [Compound 1121]
no
5) CCC(=O)N1CCC(NC(=O)NC23CC4CC(CC(C4)C2)C3)CC1 [Compound 1163]
yes

====

Measured pIC50 accompanies every entry in the list below.
# subject.of.test: human sEH (Homo sapiens (Human), UniProt P34913)
# Sequence (P34913 whole entry): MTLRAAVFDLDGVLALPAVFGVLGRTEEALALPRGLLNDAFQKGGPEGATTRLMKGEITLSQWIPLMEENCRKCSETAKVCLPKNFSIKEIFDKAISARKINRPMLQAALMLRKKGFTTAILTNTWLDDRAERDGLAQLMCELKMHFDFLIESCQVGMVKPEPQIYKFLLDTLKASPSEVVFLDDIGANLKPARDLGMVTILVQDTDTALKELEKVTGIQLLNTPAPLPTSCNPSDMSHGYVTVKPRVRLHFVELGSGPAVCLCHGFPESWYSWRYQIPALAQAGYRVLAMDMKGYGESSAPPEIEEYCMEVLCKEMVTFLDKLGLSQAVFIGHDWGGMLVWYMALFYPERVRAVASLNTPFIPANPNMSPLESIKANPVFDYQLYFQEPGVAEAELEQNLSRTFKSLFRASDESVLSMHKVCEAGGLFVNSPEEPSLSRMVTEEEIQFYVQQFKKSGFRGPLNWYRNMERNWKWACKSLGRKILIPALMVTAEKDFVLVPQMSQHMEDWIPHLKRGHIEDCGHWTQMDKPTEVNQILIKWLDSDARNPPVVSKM
# assay.details: Inhibition of human soluble epoxide hydrolase (IC50; one of three substrate methods)
# Format: biochemical
# condition.parameters: recombinant human sEH
pIC50: −log10 of the molar value.
measured.quantity: pIC50

1. O=C(NCC1CCN(C(=O)c2ccc(C(=O)O)cc2)CC1)NC12CC3CC(CC(C3)C1)C2
7.93
2. O=C(NCc1cccnc1)Oc1cccc(-c2ccccc2)c1
4.64
3. O=C(Nc1ccc(OC(F)(F)F)cc1)NC1CCNCC1
5.64
4. Cc1c(COC(=O)NCc2cccnc2)cccc1-c1ccccc1
5.36
5. COC(=O)N1CCC(NC(=O)NC23CC4CC(CC(C4)C2)C3)CC1
9.05

====

LC/MS analysis, plasma level at time 480 values, listed per item
# assay.details: Pharmacokinetic screening in dogs, oral administration, plasma LC-MS/MS
# condition.parameters: dogs, single oral dose (0.3 mg/kg per FIG. 1), time 480 min
measured.quantity: LC/MS analysis, plasma level at time 480

1. O=C(NC1CCN(C(=O)c2ccccc2)CC1)NC12CC3CC(CC(C3)C1)C2
0.00
2. COC(=O)CCCC(=O)N1CCC(NC(=O)NC23CC4CC(CC(C4)C2)C3)CC1
0.00
3. O=C(NC1CCN(C(=O)C(F)(F)F)CC1)NC12CC3CC(CC(C3)C1)C2
1.47
4. COC(=O)c1ccc(C(=O)N2CCC(NC(=O)NC34CC5CC(CC(C5)C3)C4)CC2)cc1
0.00
5. CCCC(=O)N1CCC(NC(=O)NC23CC4CC(CC(C4)C2)C3)CC1
0.86
6. O=C(NC1CCN(C(=O)c2ccccn2)CC1)NC12CC3CC(CC(C3)C1)C2
0.00
7. O=C(NCC1CCN(C(=O)c2ccccc2)CC1)NC12CC3CC(CC(C3)C1)C2
0.03
8. CC(=O)N1CCC(NC(=O)Nc2ccc(OC(F)(F)F)cc2)CC1
320.45
9. CC(=O)N1CCC(NC(=O)NC23CC4CC(CC(C4)C2)C3)CC1
4.66
10. CCC(=O)N1CCC(NC(=O)NC23CC4CC(CC(C4)C2)C3)CC1
1.50

====

# subject.of.test: human sEH (Homo sapiens (Human), UniProt P34913)
# assay.details: Inhibition of human soluble epoxide hydrolase (IC50; one of three substrate methods);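 further: enzyme expressed in baculovirus and affinity-purified, assays run in triplicate, with substrate and read-out differing among the three methods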
# Assay type: biochemical
pIC50: −log10 of the molar value.
measured.quantity: pIC50

1) O=C(NC1CCN(C(=O)c2ccccc2C(=O)O)CC1)NC12CC3CC(CC(C3)C1)C2 [Compound 1507]
6.79
2) O=C(O)CCCC(=O)N1CCC(NC(=O)NC23CC4CC(CC(C4)C2)C3)CC1 [Compound 1501]
7.14
3) CC(=O)N1CCC(NC(=O)NC2CCCCCC2)CC1 [Compound 1645]
7.56
4) CCC(=O)N1CCC(NC(=O)NC23CC4CC(CC(C4)C2)C3)CC1 [Compound 1163]
8.50
5) O=C(NC1CCN(C(=O)c2ccncc2)CC1)NC12CC3CC(CC(C3)C1)C2 [Compound 1433]
8.77
6) O=C(NC1CCN(C(=O)c2cccnc2)CC1)NC12CC3CC(CC(C3)C1)C2 [Compound 1434]
8.68
7) O=C(NC1CCN(C(=O)c2cccc(C(=O)O)c2)CC1)NC12CC3CC(CC(C3)C1)C2 [Compound 1505]
8.00
8) COC(=O)CCC(=O)N1CCC(NC(=O)NC23CC4CC(CC(C4)C2)C3)CC1 [Compound 1205]
8.05
9) COC(=O)c1cccc(C(=O)N2CCC(NC(=O)NC34CC5CC(CC(C5)C3)C4)CC2)c1 [Compound 1203]
8.96
10) O=C(NC1CCN(C(=O)c2ccc(C(=O)O)cc2)CC1)NC12CC3CC(CC(C3)C1)C2 [Compound 1523]
8.48
